Just for reference, ChEMBL document CHEMBL2029245 is where these values come from.

Target: Glycogen phosphorylase, muscle form (Oryctolagus cuniculus)
Assay: Binding affinity to rabbit muscular GPa by NMR binding assay
REPORTED ENDPOINT: IC50 (µM)
Write the number in µM without appending the unit.

The following compounds have reported results that may help.
O=C(CN1CCN(c2ccccc2)CC1)Nc1nccs1 96.9
Cc1cc(F)c(Sc2nccn2C)cc1C(=O)Nc1cccc(C#N)c1 9.9

Sure, the documented IC50 for Cc1cc(F)c(Sc2nccn2C)cc1C(=O)Nc1cccc(N)c1 is 2.7

* * *

Molecular target: Glycogen phosphorylase, muscle form (Oryctolagus cuniculus, UniProt P00489)
Sequence (P00489 whole entry): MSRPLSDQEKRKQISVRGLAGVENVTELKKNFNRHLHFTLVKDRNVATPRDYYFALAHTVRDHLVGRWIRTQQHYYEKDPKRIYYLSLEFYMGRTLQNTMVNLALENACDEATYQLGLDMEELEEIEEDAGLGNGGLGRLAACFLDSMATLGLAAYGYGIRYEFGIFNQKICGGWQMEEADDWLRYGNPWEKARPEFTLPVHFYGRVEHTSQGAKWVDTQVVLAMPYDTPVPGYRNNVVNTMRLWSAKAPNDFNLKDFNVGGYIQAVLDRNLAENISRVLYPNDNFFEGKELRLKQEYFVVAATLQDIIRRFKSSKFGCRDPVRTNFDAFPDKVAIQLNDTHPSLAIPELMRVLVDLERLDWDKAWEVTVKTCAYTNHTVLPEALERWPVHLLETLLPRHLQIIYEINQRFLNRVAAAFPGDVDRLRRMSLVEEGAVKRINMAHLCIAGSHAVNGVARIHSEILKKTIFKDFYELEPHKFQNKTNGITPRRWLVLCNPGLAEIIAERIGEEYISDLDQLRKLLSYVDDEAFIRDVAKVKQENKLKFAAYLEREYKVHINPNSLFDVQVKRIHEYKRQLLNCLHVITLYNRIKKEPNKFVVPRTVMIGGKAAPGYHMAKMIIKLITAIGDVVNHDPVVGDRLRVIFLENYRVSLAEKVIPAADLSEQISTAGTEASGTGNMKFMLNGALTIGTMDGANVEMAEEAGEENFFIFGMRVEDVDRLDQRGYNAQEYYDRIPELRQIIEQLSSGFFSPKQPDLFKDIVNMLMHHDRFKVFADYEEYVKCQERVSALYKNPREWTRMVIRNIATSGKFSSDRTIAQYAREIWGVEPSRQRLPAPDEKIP
pIC50: −log10 of the molar value.
Quick rule: pIC50 of at least 5 means 1.0, below that means 0.0.

Take a look at these entries with their results.
MOLECULE	ASSIGNED CATEGORY
O=C(O)c1ccccc1-n1cc(C(=O)O)c(=O)c2cc(Cc3c(F)cc(F)cc3Cl)c(Cl)cc21	1.0
Cc1cn([C@@H]2O[C@H](CO)[C@@H](O)[C@H](O)[C@H]2O)c(=O)[nH]c1=O	1.0
O=C(NC(=O)c1cc2ccccc2[nH]1)N[C@@H]1O[C@H](CO)[C@@H](O)[C@H](O)[C@H]1O	1.0
O=C1NCC(O)NC12O[C@H](CO)[C@@H](O)[C@H](O)[C@H]2O (stereo not given in full)	0.0

Hi, just wondering whether Nc1ccccc1C(=O)Nc1ccccc1Oc1ccc(C(=O)O)c(C(=O)O)c1 shows pIC50 of 5 or higher.
1.0
